FYI, the data here is from patent US20260242478A1.

- target-or-system: T1, Anti-CD28 scFv (VH - linker 1 - VL) (biotinylated (site not stated))
- T1 construct: Biotinylated scFv captured on neutravidin coated plates in the panning ELISA
- T1 sequence (scFv, as listed by the source): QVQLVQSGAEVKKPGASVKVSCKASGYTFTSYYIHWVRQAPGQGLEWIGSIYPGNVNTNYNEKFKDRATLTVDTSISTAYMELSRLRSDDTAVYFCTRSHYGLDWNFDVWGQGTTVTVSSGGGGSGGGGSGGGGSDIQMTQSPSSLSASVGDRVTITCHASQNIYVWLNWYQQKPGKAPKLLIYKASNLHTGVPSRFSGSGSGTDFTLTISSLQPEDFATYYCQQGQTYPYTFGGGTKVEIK
- experiment-summary: phage ELISA; biotinylated anti-CD28 scFv on neutravidin plate, wells pre-incubated with soluble CD28 (competitor), anti-M13-HRP detection;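 also: bound clonal phage detected by peroxidase-labelled anti-M13 antibody, compared against wells given blocking buffer alone without soluble CD28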
Where no end group is shown, it is not given here.
Listed next: entries and their corresponding CD28 scFv signal in presence of CD28.
readout-type: CD28 scFv signal in presence of CD28

1. MDWCPRYLWHECFF (tested as crude phage supernatant) [Phage-301]	0.682
2. MDWCPRYLWNVCFA (tested as crude phage supernatant) [Phage-289]	0.28
3. MDWCPRHLWNECFN (tested as crude phage supernatant) [Phage-283]	0.393
4. MDWCPRYLWDYCFA (tested as crude phage supernatant) [Phage-280]	0.382
5. MDWCPRDLWTECFS (tested as crude phage supernatant) [Phage-305]	0.174
6. MDWCPRDLWAMCFA (cysteine pairing not given here; also: displayed on phage as fusion to pIII, tested as crude phage supernatant) [Phage-285]	0.889
7. MDWCPLYLWAECFN (tested as crude phage supernatant) [Phage-298]	0.193
